Provenance of the data: PubChem BioAssay (NCI)

Please respond with reported growth for every item in the list.
# Test system: EKVX NSCLC
# Assay explanation: NCI-60 one-dose screen, 48 h (100 = growth as untreated, 0 = no growth, -100 = all killed)
# Protocol conditions: 10 µM
About 83,000 compounds went through this panel and 20% of them were active in at least one assay; those are over-represented in the sample as a whole.
Answers are plain numbers, in %.

Consider the following illustrative entries.
[[record]]
molecule = "O=C(O)c1cc([N+](=O)[O-])ccc1Oc1ccccc1"
result_unit = "%"
measured_result = 97.9

[[record]]
molecule = "CC[C@@H](C(=O)[C@@H](C)[C@@H](O)[C@H](C)[C@@H]1O[C@@H]([C@@H](CC)C(=O)N(CC)CC)CC[C@@H]1C)C1O[C@]2(C=CC(=O)[C@]3(CC[C@@](C)([C@H]4CC[C@](O)(CC)[C@H](C)O4)O3)O2)[C@H](C)C[C@@H]1C (stereo partly specified)"
result_unit = "%"
measured_result = 19.6

[[record]]
molecule = "COc1ccc(/C=C2/SC(=S)NC2=O)c(OC)c1OC"
result_unit = "%"
measured_result = 65.9

[[record]]
molecule = "Cc1ccc(C(C)C)c(O)c1NC(=O)OC(C)C"
result_unit = "%"
measured_result = 92.3

[[record]]
molecule = "Cc1ccc(NCCNCC(C)(C)O)c2c(=O)c3ccc(Cl)cc3sc12"
result_unit = "%"
measured_result = 71.8


Kindly consider the entry below.
Form: item CCN(CC)CC(=O)N(CC)c1ccc(C)c(Cl)c1 ; test system EKVX NSCLC; growth: 105

---

# Test system: NCI-H226 lung
# Assay explanation: NCI-60 one-dose screen, 48 h (100 = growth as untreated, 0 = no growth, -100 = all killed)
# Protocol conditions: 10 µM
The panel holds about 83,000 compounds, 20% with a hit somewhere; the sample as a whole holds those more often.
Label key: TRUE means growth under 60%; FALSE means growth of 60% or more.

Field: example entries. Status: answers known.
[[record]]
compound = "CC[C@@H]1NC(=O)[C@H]([C@H](O)[C@H](C)C/C=C/c2ccc(CN3C(=O)CCCC3=O)cc2)N(C)C(=O)[C@H](C(C)C)N(C)C(=O)[C@H](CC(C)C)N(C)C(=O)[C@H](CC(C)C)N(C)C(=O)[C@@H](C)NC(=O)[C@H](C)NC(=O)[C@H](CC(C)C)N(C)C(=O)[C@H](C(C)C)NC(=O)[C@H](CC(C)C)N(C)C(=O)CN(C)C1=O"
category = "TRUE"

[[record]]
compound = "CCCCC(CC)CN=C(N)NC(N)=NCCCCCCN=C(N)NC(N)=NCC(CC)CCCC (centres undefined)"
category = "TRUE"

[[record]]
compound = "Cc1cn(-c2cccc(NC(=O)c3ccc(C)c(Nc4nccc(-c5cccnc5)n4)c3)c2)cn1"
category = "TRUE"

[[record]]
compound = "CNS(=O)(=O)Oc1ccc(-c2sc3cc(OS(=O)(=O)NC)ccc3c2C(=O)c2ccc(OCCN3CCCCC3)cc2)cc1"
category = "FALSE"

[[record]]
compound = "O=C(CN(C1CCCCC1)C1CCCCC1)Nc1ccc(S(=O)(=O)c2ccc(NC(=O)CN(C3CCCCC3)C3CCCCC3)cc2)cc1"
category = "TRUE"

[[record]]
compound = "c1ccc(/C(=N\\Nc2ccc3ccccc3n2)c2ccccn2)cc1"
category = "TRUE"

[[record]]
compound = "Cc1cc(CC(C)CC(C)(C)C)n(O)c(=O)c1 (centres undefined) (tested in a mixture with another compound)"
category = "TRUE"

[[record]]
compound = "O=C1CCn2c1c(O)c1ccccc1c2=O"
category = "FALSE"


Q: Bench note: check whether COc1cc2cc(Oc3ccc(NC(=O)c4ccccc4)cc3)c(C)nc2cc1OC shows growth below 60%
Ans: TRUE

Q: is_below(growth, 60%) for COc1cc2c3c(n([C@H]4CCOC4)c(=O)c2cc1OC)-c1cc2c(cc1C3=O)OCO2 ?
Ans: TRUE

Q: # TODO verify growth < 60% strictly for this compound: N#CC1=C(N)Oc2cc(N)ccc2C1c1cccnc1 (centres undefined)
Ans: FALSE

Q: I wonder whether CC(C)(C)c1ccc(S(=O)(=O)N[C@H]2CC[C@H]3[C@@H]4CCc5cc(OS(=O)(=O)O)ccc5[C@H]4CC[C@]23C)cc1 has growth below 60%. Can you tell?
Ans: TRUE

Q: For this compound, is growth lower than 60%? COC(=O)c1cc2oc(/C=C3/SC(=S)N(N)C3=O)cc2n1Cc1ccccc1
Ans: TRUE

Q: Bench note: check whether S=C(SSC(=S)N(c1ccccc1)c1ccccc1)N(c1ccccc1)c1ccccc1 shows growth below 60%
Ans: FALSE

Q: is_below(growth, 60%) for COc1ccc(-c2nn(-c3cccc(Cl)c3)cc2-c2c(C#N)c(N)n(N)c(=O)c2C#N)cc1 ?
Ans: FALSE

Q: Determine if Cc1nn(-c2ccccc2)c2nc(Cl)c(C=O)c(-c3ccccc3)c12 shows growth strictly lower than 60%.
Ans: FALSE

Q: Report whether reported growth is lower than 60% (strictly) for COc1ccc2c(c1)C(=O)/C(=C/c1ccc([N+](=O)[O-])o1)O2
Ans: TRUE

Q: Consider CC[C@H]1OC(=O)[C@H](C)[C@@H](O[C@H]2C[C@@](C)(OC)[C@@H](O)[C@H](C)O2)[C@H](C)[C@@H](O[C@@H]2O[C@H](C)C[C@H](N(C)C)[C@H]2O)[C@](C)(OC)C/C(C)=C2/O[C@@]1(C)C=C2C . Does its growth lie strictly below 60%?
Ans: FALSE

Q: Is it true that growth reported for S=c1cnc2ccccc2[nH]1 is less than 60%?
Ans: FALSE

---

Assignment: determine reported growth for the given compounds.
# System: SF-268 CNS
# Assay explanation: NCI-60 one-dose screen, 48 h (100 = growth as untreated, 0 = no growth, -100 = all killed)
# Protocol conditions: 10 µM
Compounds without any hit were thinned out: in the full panel of roughly 83,000, 20% have a hit.
Numbers only, in %.

[[record]]
compound = "COCCn1cc(-c2nc(-c3cccnc3)cs2)c2cc(F)ccc21"
measured_result = 90.7


Report growth for each item below.
1. Cc1cc(Cl)ccc1Nc1nc(C(F)(F)F)ccc1C(=O)N/N=C/c1cccc(O)c1
2. C[C@]12CCC3c4ccc(O)cc4C[C@@H](CCCCCCCCCS(=O)CCCC(F)(F)C(F)(F)F)C3C1CC[C@@H]2O (stereo partly drawn)
3. CC[C@@H](C(=O)[C@@H](C)[C@@H](O)[C@H](C)[C@@H]1O[C@@H]([C@@H](CC)C(=O)O)CC[C@@H]1C)C1O[C@]2(C=CC(=O)[C@]3(CC[C@@](C)([C@H]4CC[C@](O)(CC)[C@H](C)O4)O3)O2)[C@H](C)C[C@@H]1C (stereo partly drawn)
4. COc1cc(C(=O)n2nc(-c3cc(OC)c(OC)c(OC)c3)nc2N)cc(OC)c1OC
5. OCC1OC(n2ccc3c(NO)ncnc32)C(O)C1O (stereo not drawn)

Ans:
39.3
97.1
50.6
93.4
-14.3

Items follow; give growth for each.
1. CC(C)(C)OC(=O)CN1CCc2c(sc3ncnc(N/N=C/c4cccc5ccccc45)c23)C1
2. CC(C)(C)c1ccc(S(=O)(=O)Oc2ccc(NC(=O)C3CCCCC3)cc2)cc1
3. O=C1Cc2cc(CCN3CCN(c4nsc5ccccc45)CC3)c(Cl)cc2N1
4. CCOC(=O)c1cc(C(=O)c2cc(OC)cc(OC)c2)n2ncc3ccccc3c12
5. COc1cc2c3c(n(C4CCNCC4)c(=O)c2cc1OC)-c1cc2c(cc1C3=O)OCO2

Ans:
60.2
70.6
92.9
46.9
-60

// batch mode: one growth value per listed entry
1. CCc1ccc(-c2ccc(-n3nc(C)c4c(N)nc(Cc5ccccc5)nc43)cc2)cc1
2. Cc1ccc(-n2c(C)nn3c(=O)c4c5c(sc4nc23)CN(C)CC5)cc1
3. CC(C)N(CCOc1ccc(-c2nc3sccn3c2-c2ccnc(S(C)(=O)=O)n2)cc1)C(C)C
4. O=C(CSc1nccc(Nc2cccc3ccccc23)n1)c1ccc(Cl)cc1
5. CC[C@@H](C(=O)[C@@H](C)[C@@H](O)[C@H](C)[C@@H]1O[C@@H]([C@@H](CC)C(=O)N(CC)CC)CC[C@@H]1C)C1O[C@]2(C=CC(=O)[C@]3(CC[C@@](C)([C@H]4CC[C@](O)(CC)[C@H](C)O4)O3)O2)[C@H](C)C[C@@H]1C (stereo partly drawn)
6. COc1cc(-c2nn(-c3ccc(NC(=O)NCCCNC(=O)c4ccccc4)cc3)cc2-c2ccncc2)ccc1Cl
7. Nc1ccccc1NC(=O)c1ccc(CCCC(=O)Nc2ccc(C3CC3N)cc2)cc1 (stereo not drawn)

Ans:
[66.1, 94.1, 96.3, 95, 46.4, 37.6, 32.6]

Hey, can you go through the list below and give me growth for every item?
1. OCC1OC2C(NC(=S)N2c2ccccc2)C(O)C1O (stereo not drawn)
2. O=C(/C=C/C=C/c1c(C2CC2)nc2ccccc2c1-c1ccc(F)cc1)c1cccs1
3. COc1cc(C2CC(c3ccc4c(c3)OCO4)=NN2c2ccccc2)cc(OC)c1OC (stereo not drawn)
4. Cc1cc(CC(C)CC(C)(C)C)n(O)c(=O)c1 (stereo not drawn) (tested in a mixture with another compound)
5. COc1ccc(/C=C2/SC(=S)NC2=O)c(OC)c1OC
6. O=C1c2ccccc2C(=O)N1CCCCNc1ccccc1
7. O=C(NCCCNS(=O)(=O)c1ccc(Cl)cc1)Nc1ccc(-n2cc(-c3ccncc3)c(-c3ccc(Cl)c(O)c3)n2)cc1
8. Cc1nn(-c2ccccc2)c2nc(Cl)c(C=O)c(-c3ccccc3)c12

Ans:
[96.8, 43.4, 83.6, 14.4, 80.5, 54.1, 49.1, 90.2]

Need growth for each of these compounds.
1. COc1cc2nc(SCC(=O)Nc3cc(OC)c(OC)c(OC)c3)n(Cc3ccccc3)c(=O)c2cc1OC
2. COc1ccc(C(=O)c2cc3c(OC)c(OC)c(OC)cc3[nH]2)cc1
3. COc1cc(-c2nn(-c3cccc(NC(=O)NCCNS(=O)(=O)c4ccc(Cl)cc4)c3)cc2-c2ccncc2)ccc1Cl
4. CC(C)(O)CCl
5. CC(CN(C)C)Oc1ccc(OC(C)CN(C)C)c2c1C(=O)c1ccccc1C2=O (stereo not drawn)

Ans:
[39.5, 63.5, 13.1, 111, 47.8]

Quick request: growth for each listed item, please.
1. N#CCc1csc(Cc2ccccc2)n1
2. Cc1cccc(N=Cc2ccccc2O)c1C
3. CC(=O)COc1ccc(Cl)cc1Cl
4. OC[C@H]1OC([S-])[C@H](O)[C@@H](O)[C@@H]1O.[Au+] (stereo partly drawn)
5. CC(C)(C)c1nn(-c2ccccc2)c2c1CC1(CN2Cc2ccc(Cl)cc2)C(=O)c2ccccc2C1=O
6. COc1cc(-c2nn(-c3cccc(NC(=O)CCNc4ccc(N5CCOCC5)cc4)c3)cc2-c2ccncc2)ccc1Cl

Ans:
1: 100; 2: 116; 3: 109; 4: 88.2; 5: 89; 6: 31.8

# compound O=C1c2ccccc2C(=O)c2c1ccc1c(=O)n(-c3ccccc3C(F)(F)F)nnc21 ; its growth = 43.2
